Each record here notes measured fraction unbound at 4 h.
- measurement_notes: in vitro
- conditions: Sprague-Dawley, rat, plasma, iv, 2 (umol/kg)/hr
assay_endpoint: fraction unbound at 4 h

compound	assay_endpoint	numeric_readout
O=C(O)c1cc(/N=N/c2ccc(S(=O)(=O)Nc3ccccn3)cc2)ccc1O	fraction unbound at 4 h	0.005
CO[C@H]1/C=C/O[C@@]2(C)Oc3c(C)c(O)c4c(O)c(c(/C=N/N5CCN(C)CC5)c(O)c4c3C2=O)NC(=O)/C(C)=C\C=C\[C@H](C)[C@H](O)[C@@H](C)[C@@H](O)[C@@H](C)[C@H](OC(C)=O)[C@@H]1C	fraction unbound at 4 h	0.12
CC1(C)O[C@@H]2[C@@H](CO[C@@]3(COS(N)(=O)=O)OC(C)(C)O[C@@H]23)O1 [TOPIRAMATE]	fraction unbound at 4 h	0.79
CCCC(C)C1(CC)C(=O)NC(=S)NC1=O (centres undefined)	fraction unbound at 4 h	0.19
COc1ccc2c3c1O[C@H]1C(=O)CC[C@@]4(O)[C@@H](C2)N(C)CC[C@]314	fraction unbound at 4 h	0.87
CN1CC[C@]23c4c5ccc(O[C@@H]6O[C@H](C(=O)O)[C@@H](O)[C@H](O)[C@H]6O)c4O[C@H]2[C@@H](O)C=C[C@H]3[C@H]1C5 [MORPHINE 3-GLUCURONIDE]	fraction unbound at 4 h	1
CCn1cc(C(=O)O)c(=O)c2cc(F)c(N3CCNCC3)cc21	fraction unbound at 4 h	0.87
Nc1nnc(-c2cccc(Cl)c2Cl)c(N)n1	fraction unbound at 4 h	0.51
CC(C)NCC(O)COc1cccc2[nH]ccc12 (centres undefined)	fraction unbound at 4 h	0.43
CO[C@@]1(NC(=O)C(C(=O)O)c2ccc(O)cc2)C(=O)N2C(C(=O)O)=C(CSc3nnnn3C)CO[C@@H]21 (some centres undefined)	fraction unbound at 4 h	0.32
CN(C)CCC=C1c2ccccc2CCc2ccccc21	fraction unbound at 4 h	0.09
CC(NC(C)(C)C)C(=O)c1cccc(Cl)c1 (centres undefined)	fraction unbound at 4 h	0.31
CC(=O)O[C@H]1C(=O)[C@@]2(C)[C@H]([C@H](OC(=O)c3ccccc3)[C@]3(O)C[C@H](OC(=O)[C@H](O)[C@@H](NC(=O)c4ccccc4)c4ccccc4)C(C)=C1C3(C)C)[C@]1(OC(C)=O)CO[C@@H]1C[C@@H]2O	fraction unbound at 4 h	0.05
C[C@H]1COc2c(N3CCN(C)CC3)c(F)cc3c(=O)c(C(=O)O)cn1c23.C[C@H]1COc2c(N3CCN(C)CC3)c(F)cc3c(=O)c(C(=O)O)cn1c23.O	fraction unbound at 4 h	0.82

---

Each record here notes measured Kp uu.
- measurement_notes: clinical
- conditions: human, CSF and plasma
- Description: Unbound CSF to plasma concentration ratio in human
assay_endpoint: Kp uu

>>> print(df.to_string())
                                   molecule  result
0  CN(Cc1cnc2nc(N)nc(N)c2n1)c1ccc(C(=O)N[C@@H](CCC(=O)O)C(=O)O)cc1 [METHOTREXATE]   0.062
1  CC(C)NCC(O)COc1cccc2ccccc12 (stereo not drawn)    0.42
2  CC(NC(C)(C)C)C(=O)c1cccc(Cl)c1 (stereo not drawn)       2

---

Each record here notes measured Cp(f).
- System: Plasma
- conditions: rat, iv, 4 h

molecule	Cp(f)
COc1ccc2c3c1O[C@H]1C(=O)CC[C@@]4(O)[C@@H](C2)N(C)CC[C@]314	330 nM
CC(C)(C)NC(=O)[C@@H]1C[C@@H]2CCCC[C@@H]2CN1C[C@@H](O)[C@H](Cc1ccccc1)NC(=O)[C@H](CC(N)=O)NC(=O)c1ccc2ccccc2n1	3 nM
NCC1(CC(=O)O)CCCCC1	5200 nM
CCn1cc(C(=O)O)c(=O)c2cc(F)c(N3CCNCC3)cc21	700 nM
CO[C@H]1/C=C/O[C@@]2(C)Oc3c(C)c(O)c4c(O)c(c(/C=N/N5CCN(C)CC5)c(O)c4c3C2=O)NC(=O)/C(C)=C\C=C\[C@H](C)[C@H](O)[C@@H](C)[C@@H](O)[C@@H](C)[C@H](OC(C)=O)[C@@H]1C	830 nM
CN1CC[C@]23c4c5ccc(O)c4O[C@H]2C(=O)CC[C@@]3(O)[C@H]1C5	240 nM
CCCC(C)C1(CC)C(=O)NC(=S)NC1=O (configuration not stated)	550 nM

---

- measurement_notes: in vivo
- conditions: Sprague-Dawley, rat, brain, iv, 2 (umol/kg)/hr
Class (by Kp uu at 4 h) -- c1: < 0.06; c2: ≥ 0.06 and < 0.4; c3: ≥ 0.4

In [3]: df
Out[3]:
                                   compound  label_value
0  CN(Cc1cnc2nc(N)nc(N)c2n1)c1ccc(C(=O)N[C@@H](CCC(=O)O)C(=O)O)cc1 [METHOTREXATE]           c1
1  COc1ccc2c3c1O[C@H]1[C@@H](O)C=C[C@H]4[C@@H](C2)N(C)CC[C@@]341           c3
2  CC(C)Nc1cccnc1N1CCN(C(=O)c2cc3cc(NS(C)(=O)=O)ccc3[nH]2)CC1           c1
3  C=CCc1ccccc1OCC(O)CNC(C)C (stereo not given)           c2
4  CC(C)(C)NC(=O)[C@@H]1C[C@@H]2CCCC[C@@H]2CN1C[C@@H](O)[C@H](Cc1ccccc1)NC(=O)[C@H](CC(N)=O)NC(=O)c1ccc2ccccc2n1           c1
5  CSc1ccc2c(c1)N(CCC1CCCCN1C)c1ccccc1S2 (stereo not given)           c3
6  C=CCOc1ccccc1OCC(O)CNC(C)C (stereo not given)           c2
7  COc1ccc2c(c1)c(CC(=O)O)c(C)n2C(=O)c1ccc(Cl)cc1           c2
8  O=C1CN(/N=C/c2ccc([N+](=O)[O-])o2)C(=O)N1           c1
9  COc1cccc(C2(O)CCCCC2CN(C)C)c1 (stereo not given)           c3

---

Each record here notes measured Kp uu.
- measurement_notes: clinical
- conditions: human, CSF and plasma
assay_endpoint: Kp uu

molecule	numeric_readout
NCC1(CC(=O)O)CCCCC1 [GABAPENTIN]	0.16
O=C(O)c1ccccc1O [SALICYLIC ACID]	0.19
CO[C@@]1(NC(=O)C(C(=O)O)c2ccc(O)cc2)C(=O)N2C(C(=O)O)=C(CSc3nnnn3C)CO[C@@H]21 (stereo partly drawn) [MOXALACTAM]	0.41
CN1CC[C@]23c4c5ccc(O[C@@H]6O[C@H](C(=O)O)[C@@H](O)[C@H](O)[C@H]6O)c4O[C@H]2[C@@H](O)C=C[C@H]3[C@H]1C5 [MORPHINE 3-GLUCURONIDE]	0.081
CSc1ccc2c(c1)N(CCC1CCCCN1C)c1ccccc1S2 (stereo not drawn) [THIORIDAZINE]	1.4
CC(C)(C)NC(=O)[C@@H]1C[C@@H]2CCCC[C@@H]2CN1C[C@@H](O)[C@H](Cc1ccccc1)NC(=O)[C@H](CC(N)=O)NC(=O)c1ccc2ccccc2n1	0.096
Nc1c2c(nc3ccccc13)CCCC2 [TACRINE]	0.74
CC(C)NCC(O)COc1cccc2[nH]ccc12 (stereo not drawn) [PINDOLOL]	0.52

---

- measurement_notes: in vivo
- conditions: Sprague-Dawley, rat, brain and plasma, iv, 2 (umol/kg)/hr
assay_endpoint: Kp at 4 h

compound	assay_endpoint	numeric_readout
CN1CC[C@]23c4c5ccc(O[C@@H]6O[C@H](C(=O)O)[C@@H](O)[C@H](O)[C@H]6O)c4O[C@H]2[C@@H](O)C=C[C@H]3[C@H]1C5 [MORPHINE 3-GLUCURONIDE]	Kp at 4 h	0.007
CCC(C(N)=O)(C(N)=O)c1ccccc1 [PHENYLETHYLMALONAMIDE]	Kp at 4 h	0.64
C[C@H]1COc2c(N3CCN(C)CC3)c(F)cc3c(=O)c(C(=O)O)cn1c23.C[C@H]1COc2c(N3CCN(C)CC3)c(F)cc3c(=O)c(C(=O)O)cn1c23.O [LEVOFLOXACIN]	Kp at 4 h	0.17
CC(C)NCC(O)COc1cccc2[nH]ccc12 (centres undefined) [PINDOLOL]	Kp at 4 h	1.56

---

Each record here notes measured Kp uu.
- measurement_notes: clinical
- conditions: human, CSF and plasma
assay_endpoint: Kp uu

compound	assay_endpoint	result
C[C@H]1COc2c(N3CCN(C)CC3)c(F)cc3c(=O)c(C(=O)O)cn1c23.C[C@H]1COc2c(N3CCN(C)CC3)c(F)cc3c(=O)c(C(=O)O)cn1c23.O [LEVOFLOXACIN]	Kp uu	0.18
Nc1nnc(-c2cccc(Cl)c2Cl)c(N)n1 [LAMOTRIGINE]	Kp uu	1.1
COc1ccc2c3c1O[C@H]1[C@@H](O)C=C[C@H]4[C@@H](C2)N(C)CC[C@@]341 [CODEINE]	Kp uu	0.79
CN1CC[C@]23c4c5ccc(O)c4O[C@H]2[C@@H](O[C@@H]2O[C@H](C(=O)O)[C@@H](O)[C@H](O)[C@H]2O)C=C[C@H]3[C@H]1C5 [MORPHINE GLUCURONIDE]	Kp uu	0.1
